All figures here come from PubChem BioAssay (NCI).

Tested on: T-47D breast
Assay: NCI-60 one-dose screen, 48 h (100 = growth as untreated, 0 = no growth, -100 = all killed)
Conditions: 10 µM unless noted
Compounds without any hit were thinned out: in the full panel of roughly 83,000, 20% have a hit.
Please use yes (1) whenever growth is not below 80%, and no (0) whenever it is.

MOLECULE | CLASS
NC(=O)c1ncn([C@@H]2O[C@H](CO)[C@@H](O)[C@H]2O)n1 | yes (1)
O=c1c(O)cccn1CCCNCCCN(CCCn1cccc(O)c1=O)CCCn1cccc(O)c1=O | yes (1)
CCN(CC)c1ccc(CN(CC(=O)c2ccc(Cl)c(Cl)c2)Cc2ccccc2)cc1 | yes (1)
CC(=O)NC1(C(=O)O)CCCC1 | yes (1)
CCOc1cc(-c2ccc[nH]2)[nH]c1/C=C1\N=C(C)C(C(=O)OC)=C1C | no (0)
Nc1ccc2c(c1)/C(=N/O)c1cc([N+](=O)[O-])ccc1-2 | yes (1)
Oc1[nH]c2ccc(Cl)cc2c1/C=c1/ccc2c(c1)N=C(c1ccc(C(F)(F)F)cc1)N=2 | no (0)
COc1cc([C@@H]2c3cc4c(cc3C(O[C@@H]3O[C@@H]5CO[C@@H](c6cccs6)OC5[C@H](O)[C@H]3O)C3COC(=O)[C@@H]32)OCO4)cc(OC)c1O (some centres undefined) | no (0)
COc1cc(OC)c2cc(C(=O)O)c(=O)oc2c1 | yes (1)
COc1ccc(CCN2CCCN3C2=Nc2ccccc2S3(=O)=O)cc1 | no (0)
CCN1C[C@@H](C)n2c(c(O)c3c(=O)n(Cc4ccc(F)c(Cl)c4)nc(C(=O)NC)c32)C1=O | no (0)
C=C(C)[C@H]1CC/C(C)=C/CC[C@]2(C)O[C@H]2CC/C(C=O)=C\C1O (some centres undefined) | yes (1)
CCOc1cc(C(C)(C)C)ccc1C1=N[C@H](c2ccc(Cl)cc2)[C@H](c2ccc(Cl)cc2)N1C(=O)N1CCN(CC#Cc2cccc3c2CN([C@@H]2CCC(=O)NC2=O)C3=O)CC1 | no (0)
O=C(CCc1nnc(Cn2cncn2)o1)c1nc2ccccc2[nH]1 | yes (1)
O=C1CC(=O)N(c2ccccc2)O1 | yes (1)
COc1ccc(C(=O)COc2cccc(/C=C3\Oc4ccc5ccccc5c4C3=O)c2)cc1 | no (0)
Cn1[nH]cc(/C=N/C(N)=O)c1=O | yes (1)

* * *

System: SK-OV-3 ovarian
Experiment: NCI-60 one-dose screen, 48 h (100 = growth as untreated, 0 = no growth, -100 = all killed)
Settings: 10 µM unless noted
This is part of a sample that, as a whole, favours compounds with a hit. Of some 83,000 tested, about 20% had one in any assay.

MOLECULE | growth, %
O=C1Nc2ccccc2C12Nc1cc(Cl)ccc1S2 (stereo not given) | 70.9
O=C(NN(C(=O)c1ccccc1)c1cccs1)c1ccccc1 | 102
CC(=O)Oc1c(C)c(OC(C)=O)c2c(c1C(C)=O)OC1CC(=O)C(C(C)=O)=C(O)C21C (stereo not given) | 98.2
COc1ccc(-c2c(N)noc2-c2cc(OC)c3c(c2)OCCO3)cc1 | 8.57
CCOC(=O)c1c(C)nc(C)c(C(=O)OCC)c1-c1cccnc1 | 99.2
O=[N+]([O-])c1ccc(N/N=C/c2c(O)ccc3ccccc23)nc1 | 50.9
N#Cc1c(N2CCOCC2)nc2sc3cc(Cl)ccc3n2c1=N | 67.3
COc1cc(OC)c2sc(-c3ccc(-n4cncc4-c4ccc(N)cc4)cc3)nc2c1 | 120
CCN(CC)c1ccc(CN(CC(=O)c2ccc(Cl)c(Cl)c2)Cc2ccccc2)cc1 | 90
COc1ccc(-c2cc(C(=O)Nc3nc4cc(C)c(C)cc4s3)nc3cc(-c4ccccc4)nn23)cc1OC | 105

* * *

Test system: 786-0 renal
Test: NCI-60 one-dose screen, 48 h
Details: 10 µM unless noted
The panel holds about 83,000 compounds, 20% with a hit somewhere; the sample as a whole holds those more often. The source made the active and inactive calls. How the source made its calls: active means growth percent below 10; inactive means the rest.
Possible outcomes: active, inactive

COMPOUND | EXPERIMENTAL_SYSTEM | CLASS
Nc1nc(SCC2(CCl)COC2)c2[nH]cnc2n1 | 786-0 renal | inactive
O=C(/C=C/c1ccccc1)CC(c1ccccc1)N1CCOCC1 (stereo unspecified) | 786-0 renal | active
CC(=O)c1nc2ccccc2n1CCn1cc(CC(N)C(=O)O)c2ccccc21 (stereo unspecified) | 786-0 renal | inactive
O=C(/C=C/c1cccnc1)/C=C/c1cccnc1 | 786-0 renal | active
ClC1=C(Cl)C(Cl)=C(Cl)C1=Cc1ccc(Cl)cc1 | 786-0 renal | active
Cc1nn(-c2ccccc2)c2ncc3c(c12)C(=O)N(Cc1ccccc1)C3=O | 786-0 renal | active

* * *

Test system: MOLT-4 leukemia
Assay: NCI-60 one-dose screen, 48 h (100 = growth as untreated, 0 = no growth, -100 = all killed)
Details: 10 µM unless noted
Compounds without any hit were thinned out: in the full panel of roughly 83,000, 20% have a hit.
Each record here notes measured growth.
ASSAY_METRIC: growth (%)

MOLECULE | ASSAY_METRIC | RESULT_NUMBER
COc1ccc(C2=NNC(c3cc(Cc4ccc(O)c(C5CC(c6ccc(OC)cc6)=NN5)c4)ccc3O)C2)cc1 (configuration not stated) | growth | 18.4
O=C(Nc1nc(-c2ccccc2)cs1)c1cc(O)c(O)c(O)c1 | growth | 17.1
COc1ccc(C2CC(c3ccc(OC)c(OC)c3)=NN2C(=O)c2cc(OC)c(OC)c(OC)c2)c(OC)c1 (configuration not stated) | growth | 106
O=C(COC(=O)[C@H](C[Se][Se]C[C@H](NC(=O)c1ccc(Br)cc1F)C(=O)OCC(=O)c1ccc(F)cc1)NC(=O)c1ccc(Br)cc1F)c1ccc(F)cc1 | growth | -30
C[n+]1c2ccccc2c(Nc2ccc(N3CCCCC3)cc2)c2[nH]c3ccccc3c21 | growth | -63.4
CC(NC(=O)C(C)Oc1ccc(Cl)cc1Cl)C(=O)O (configuration not stated) | growth | 139
CC1=CC(=O)C(C(C)=Nc2ccccc2Cl)C(=O)O1 (configuration not stated) | growth | 101
Clc1cc(Cl)c(OCC#CI)cc1Cl | growth | 41.5
[O-]/[N+](=C\C=C\c1ccccc1)c1ccccc1 | growth | 85.1
O=C(Nc1ccc(Oc2ccc(NC(=O)Nc3ccc([N+](=O)[O-])cc3)cc2)cc1)Nc1ccc([N+](=O)[O-])cc1 | growth | -26.4
Cn1c(=O)c2nc(SCc3ccccc3)n(C)c2n(C)c1=O | growth | 106
CCCc1cccc(CCC)c1O | growth | 105
C=CC1=C(C(=O)O)N2C(=O)[C@@H](NC(=O)/C(=N\O)c3csc(N)n3)[C@H]2SC1 (stereo in doubt) | growth | 104
CC(c1ccccn1)C(C)(O)C(C)c1ccccn1 (configuration not stated) | growth | 65.1
N#CCCCCCn1c2ccccc2c2c3c(c4c5ccccc5[nH]c4c21)C(=O)N(O)C3=O | growth | -21.3
O=C(C(=O)N1CCOCC1)c1ccc(OC2OC(CO)C(O)C(O)C2O)cc1 (configuration not stated) | growth | 90.3
C[n+]1ccc(C#N)c2ccccc21 | growth | 64.5
CCC(C)CC(C)C(=O)c1c(O)ccn(OC)c1=O (configuration not stated) | growth | 68.1
CCOC(=O)c1cc(-c2cccnc2)nc2c(Cl)cc(Cl)cc12 | growth | 98.9
CCCCSc1cc(C)nc(N)n1 | growth | 102
CC/C(=C\c1ccc(N(C)C)cc1)c1ccncc1 | growth | 38.7
N#CCCN(CCO)c1ccccc1 | growth | 90

* * *

System: BT-549 breast
Experiment: NCI-60 one-dose screen, 48 h (100 = growth as untreated, 0 = no growth, -100 = all killed)
Details: 10 µM unless noted
This is part of a sample that, as a whole, favours compounds with a hit. Of some 83,000 tested, about 20% had one in any assay. Activity calls are given as the source filed them. The calls were made as follows: active = growth percent below 10; inactive = the rest.
Each record here notes measured growth.
ASSAY_METRIC: growth

COMPOUND | EXPERIMENTAL_SYSTEM | ASSAY_METRIC | RESULT
O=C1C(Cl)=C(N=Nc2c(Cl)c(O)c3ccccc3c2O)C(=O)c2ccccc21 | BT-549 breast | growth | 62% (inactive)
COc1ccc2c(c1)C(=O)c1c-2c(OCCN(C)C)nc2cc(OC)ccc12 | BT-549 breast | growth | 56.6% (inactive)
CCN1CCN(c2cc(-c3cn[nH]c3-c3cc(C)cc(OC)c3)nc(-c3cccnc3)n2)CC1 | BT-549 breast | growth | 92.9% (inactive)
COc1cc(/C=C2\CCC/C(=C\c3ccc(OCC4CO4)c(OC)c3)C2=O)ccc1OCC1CO1 (configuration not stated) | BT-549 breast | growth | 30.3% (inactive)
Fc1ccc(-c2nnc(-c3c(-c4ccc(F)cc4)nc4ncccn34)o2)cc1 | BT-549 breast | growth | 99.9% (inactive)
COC(=O)CCC1=C(C)C(C)=N/C1=C\c1[nH]c(-c2ccc[nH]2)cc1OC | BT-549 breast | growth | 29.2% (inactive)
COc1ccc(OC)c(/C=C/c2nc(=S)n(-c3ccc(Cl)cc3)[nH]2)c1 | BT-549 breast | growth | 67.2% (inactive)
